The reported measurements were obtained from patent US20250270328A1.

measuredTarget: T1, human KLRB1 protein extracellular domain (ECD) (human, UniProt Q12918 67-225)
T1 construct: range 67-225; The ELISA and SPR text says only 'human KLRB1 ECD'; also called human KLRB1 ECD; CD161
T1 sequence (looked up): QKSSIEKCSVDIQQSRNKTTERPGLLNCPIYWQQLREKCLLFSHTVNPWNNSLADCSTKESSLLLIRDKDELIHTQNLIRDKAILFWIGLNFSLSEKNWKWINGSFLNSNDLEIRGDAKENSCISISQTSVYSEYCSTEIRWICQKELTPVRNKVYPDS
measurementDescription: SPR, human KLRB1 ECD; format not stated
quantity: pKd
Hey, just a heads up that pKd is the negative log base 10 of the concentration in molar.

Solved entries:
10A3D6C109Chum2.4 (antibody, V domains shown, Humanized variant of 10A3D6 made by CDR grafting) VH: QVQLVQSGAEVKKPGASVKVSCKASGYSFTGYTMNWVRQAPGQNLEWIGLINPNTGGTYYNQKFKDRVTLTVDTSISTAYMELSRLRSDDTAVYYCARLGDNYRGYFDCWGQGTTVTVSS VL: DIQLTQSPSFLSASVGDRVTITCKASQDVGTAVVWYQQTPGKAPKLLIDWASIRHTGVPDRFSGSGSGTEFTLTISSLQPEDFADYFCQQYSTYLYTFGGGTKLEIK | 10.01
10A3D6C109Chum4.4 (antibody, V domains shown, Humanized variant of 10A3D6 made by CDR grafting) VH: QVQLVQSGAEVKKPGASVKVSCKASGYSFTGYTMNWVRQAHGQNLEWIGLINPNTGGTYYNQKFKDRATLTVDTSISTAYMELSRLRSDDTAVYYCARLGDNYRGYFDCWGQGTTVTVSS VL: DIQLTQSPSFLSASVGDRVTITCKASQDVGTAVVWYQQTPGKAPKLLIDWASIRHTGVPDRFSGSGSGTEFTLTISSLQPEDFADYFCQQYSTYLYTFGGGTKLEIK | 9.99

Data request: Suppose we examine the binder 10A3D6C109Chum5.2 (antibody, V domains shown, Humanized variant of 10A3D6 made by CDR grafting) VH: QVQLVQSGAEVKKPGASVKVSCKASGYSFTGYTMNWVRQAPGQNLEWMGLINPNTGGTYYNQKFKDRVTLTVDTSISTAYMELSRLRSDDTVVYYCARLGDNYRGYFDCWGQGTLVTVSS VL: DIQLTQSPSFLSASVGDRVTITCKASQDVGTAVVWYQQKPGKAPKLLIDWASIRHTGVPSRFSGSGSGTEFTLTISSLQPEDFADYFCQQYSTYLYTFGGGTKLEIK ; what pKd value has been reported?
Data returned: 9.76
